Assay: Lipophilicity, log P of the compound
Format: physicochemical
Conditions: octanol/water
measurement.kind: logP

(Q) Suppose we examine the compound COc1ccc2[nH]cc(CCNC(C)=O)c2c1 ; what logP value has been reported?
(A) 2.16

----------
Listed here: items and their measured Ratio Ki.
Species on record: Homo sapiens
Assay: Selectivity ratio of Ki for human melatonin MT1 receptor to Ki for human melatonin MT2 receptor
Output: the number by itself.

The cases that follow already have their Ratio Ki on record.
(Q) Suppose we examine the compound COc1ccc(OCCc2ccccc2)c(CCCNC(C)=O)c1 ; what Ratio Ki value has been reported?
(A) 219

(Q) Suppose we examine the compound COc1cccc(COc2ccc(CCCNC(C)=O)cc2OC)c1 ; what Ratio Ki value has been reported?
(A) 13.9

(Q) Suppose we examine the compound CCCOc1ccc(OC)cc1CCCNC(C)=O ; what Ratio Ki value has been reported?
(A) 189

Please look at the following compound next.
(Q) Suppose we examine the compound COc1cccc(CCCNC(C)=O)c1 ; what Ratio Ki value has been reported?
(A) 31

----------
Biological target: Melatonin receptor type 1B (Homo sapiens, UniProt P49286)
Sequence (P49286 whole entry): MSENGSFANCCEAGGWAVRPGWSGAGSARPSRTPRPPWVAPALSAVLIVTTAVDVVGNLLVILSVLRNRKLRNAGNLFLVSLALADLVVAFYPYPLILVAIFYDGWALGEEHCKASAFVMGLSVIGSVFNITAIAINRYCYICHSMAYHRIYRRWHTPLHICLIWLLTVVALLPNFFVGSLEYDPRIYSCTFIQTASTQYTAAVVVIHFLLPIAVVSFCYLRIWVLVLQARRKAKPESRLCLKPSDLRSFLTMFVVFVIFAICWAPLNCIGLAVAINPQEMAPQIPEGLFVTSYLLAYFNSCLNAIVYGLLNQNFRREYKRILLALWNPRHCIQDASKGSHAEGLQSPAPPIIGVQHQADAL
measurement.kind: Ki (nM)
Note: unit nM is implicit; provide only the numeric part.

The cases that follow already have their Ki on record.
(Q) Suppose we examine the molecule COc1cc(COc2ccc(OC)cc2CCCNC(C)=O)cc(OC)c1 ; what Ki value has been reported?
(A) 0.0326

(Q) Suppose we examine the molecule COc1ccc(OCCc2ccccc2)c(CCCNC(C)=O)c1 ; what Ki value has been reported?
(A) 13.4

(Q) Suppose we examine the molecule COc1cc(CCCNC(C)=O)ccc1O ; what Ki value has been reported?
(A) 12.6

Please look at the following molecule next.
(Q) Suppose we examine the molecule COc1ccc(OCc2ccccn2)c(CCCNC(C)=O)c1 ; what Ki value has been reported?
(A) 1.61

Every entry's value here was drawn from ChEMBL document CHEMBL1156969.
